# methodSummary: qHTS Assay for Modulators of miRNAs and/or Inhibitors of miR-21
# protocolConditions: HeLa miR-21-FLuc reporter, luciferase luminescence, 48 h; actives lower the signal
About 3,300 (0.97%) of roughly 340,000 compounds were called active. Another 9% or so got no clear call; they are omitted. Some of the results follow.
assayReadout: Potency

// solved cases for Potency follow
CCCCOC(=O)Nc1ccc2c(C)cc(=O)oc2c1	1.17 µM (active)
COc1ccc(CNC(=O)Nc2ccccc2)cc1	4.65 µM (active)
Cc1cc(=O)oc2cc(NC(=O)c3ccccc3Cl)ccc12	3.69 µM (active)

# input for lookup
Q) I am curious: what Potency value has been reported for COc1ccc2c(c1)CC/C(=C/c1ccco1)C2=O ?
A) 1.85 µM (active)

----------
# methodSummary: qHTS Assay for Modulators of miRNAs and/or Inhibitors of miR-21
# protocolConditions: HeLa miR-21-FLuc reporter, luciferase luminescence, 48 h; actives lower the signal
Out of some 340,000 compounds screened, about 3,300 (0.97%) were called active. Not shown: some 9% with an inconclusive outcome. The list shows a part of the results.
assayReadout: Potency

// solved cases for Potency follow
O=C(O)c1cc(-c2ccc(C(F)(F)F)cc2)nc2n[nH]c(-c3ccccc3)c12	0.585 µM (active)
O=C(Nc1ccc2oc(-c3ccc4ccccc4c3)nc2c1)c1cc(Br)ccc1Cl	16.5 µM (active)
COc1ccc(-c2nnc(SCC(=O)Nc3cccc(F)c3)s2)cc1	13.1 µM (active)
Cc1cc(CN(C)C(=O)c2cc(COc3ccc(F)cc3Cl)on2)n[nH]1	10.4 µM (active)
CCOC(=O)c1sc2nc3c(cc2c1N)COC(C(C)C)C3 (centres undefined)	0.0414 µM (active)
CC(C)(C)SCCNC(=O)/C=C/c1ccccc1	11.7 µM (active)

Q) I am curious: what Potency value has been reported for Cc1nnc(CN(C)C(=O)c2cc(COc3ccc(F)cc3Cl)on2)o1 ?
A) 13.1 µM (active)

Q) I am curious: what Potency value has been reported for COc1ccc(Cn2c(C3CC3)nc3ccc(NC(C)=O)cc3c2=O)cc1 ?
A) 3.29 µM (active)

Q) I am curious: what Potency value has been reported for O=C(/C=C/c1ccc(F)cc1)NCCC1=CCCCC1 ?
A) 7.36 µM (active)

Q) I am curious: what Potency value has been reported for CCC(=O)Nc1ccc(N2CCC(C)CC2)cc1 ?
A) 18.5 µM (active)

Q) I am curious: what Potency value has been reported for COc1ccc(Cn2c(C3CC3)nc3ccc(NC(=O)C4CC4)cc3c2=O)cc1 ?
A) 1.47 µM (active)

Q) I am curious: what Potency value has been reported for CCC(=O)N1CCc2nc(-c3ccccc3)sc2C1 ?
A) 14.7 µM (active)

Q) I am curious: what Potency value has been reported for O=C(Nc1ccc2oc(-c3ccccc3)nc2c1)c1ccccc1F ?
A) 1.31 µM (active)

Q) I am curious: what Potency value has been reported for C/C(=N\O)c1sc(-c2ccccc2)nc1C ?
A) 1.85 µM (active)

----------
# methodSummary: qHTS Assay for Modulators of miRNAs and/or Inhibitors of miR-21
# protocolConditions: HeLa miR-21-FLuc reporter, luciferase luminescence, 48 h; actives lower the signal
Out of some 340,000 compounds screened, about 3,300 (0.97%) were called active. Roughly 9% stayed inconclusive and do not appear here. The list shows a part of the results.
Measured Potency, listed per entry for reference.

Q) I am curious: what Potency value has been reported for O=C1/C(=C\c2ccc(O)c(O)c2)N=C2CCCCCN12 ?
A) 14.7 µM (active)

Q) I am curious: what Potency value has been reported for Cc1nn(CC(=O)Nc2ccccc2C(F)(F)F)c(=O)c2cccn12 ?
A) 16.5 µM (active)

----------
# methodSummary: qHTS Assay for Modulators of miRNAs and/or Inhibitors of miR-21; note: potency is the fitted concentration of half-maximal effect; nearly all actives have a fitted effect of over 55% in size
# protocolConditions: HeLa miR-21-FLuc reporter, luciferase luminescence, 48 h; actives lower the signal
In all, about 340,000 compounds went through this assay and about 3,300 (0.97%) were called active. Another 9% or so got no clear call; they are omitted. The list shows a part of the results.
Measured Potency, listed per entry for reference.

// solved cases for Potency follow
CCOC(=O)c1c(C)nc(-c2ccccc2)nc1N	4.65 µM (active)
Cc1ncc(CO)c(/C=N/N=C/c2ccccc2O)c1O	13.1 µM (active)
CN(Cc1nc(-c2cccc(Cl)c2)no1)C1CCOCC1	7.36 µM (active)

# input for lookup
Q) I am curious: what Potency value has been reported for CCOC(=O)c1c(-c2ccccc2)cn2c(C)cc(C)nc12 ?
A) 5.85 µM (active)

----------
Measured Potency, listed per entry for reference.
# methodSummary: qHTS Assay for Modulators of miRNAs and/or Inhibitors of miR-21; note: potency is the fitted concentration of half-maximal effect; nearly all actives have a fitted effect of over 55% in size
# protocolConditions: HeLa miR-21-FLuc reporter, luciferase luminescence, 48 h; actives lower the signal
About 3,300 (0.97%) of roughly 340,000 compounds were called active. Roughly 9% stayed inconclusive and do not appear here. Some of the results follow.

Q) I am curious: what Potency value has been reported for COc1ccccc1/C=N/Nc1nncc2ccccc12 ?
A) 4.65 µM (active)

Q) I am curious: what Potency value has been reported for COc1ccc(-n2nc([N+](=O)[O-])c(=NCc3cccnc3)n2O)cc1 ?
A) 2.33 µM (active)

Q) I am curious: what Potency value has been reported for COc1ccc(-n2nc([N+](=O)[O-])c(=NCc3ccc4c(c3)OCO4)n2O)cc1 ?
A) 1.65 µM (active)

Q) I am curious: what Potency value has been reported for CCN(CC)C(=O)c1sc2nc(-c3ccccc3)ccc2c1N ?
A) 1.47 µM (active)

Q) I am curious: what Potency value has been reported for CCOC(=O)c1sc2nc(-c3ccccc3)ccc2c1N ?
A) 0.0927 µM (active)

Q) I am curious: what Potency value has been reported for CCCn1nnc(NC(=O)c2ccc3ccccc3c2)n1 ?
A) 4.14 µM (active)

Q) I am curious: what Potency value has been reported for Cc1ccc(CN=c2c([N+](=O)[O-])nn(-c3ccc4c(c3)OCCO4)n2O)cc1 ?
A) 1.31 µM (active)

----------
Measured Potency, listed per entry for reference.
# methodSummary: qHTS Assay for Modulators of miRNAs and/or Inhibitors of miR-21; note: potency is the fitted concentration of half-maximal effect; nearly all actives have a fitted effect of over 55% in size
# protocolConditions: HeLa miR-21-FLuc reporter, luciferase luminescence, 48 h; actives lower the signal
Hit rate of the full screen: of about 340,000 compounds, about 3,300 (0.97%) were called active. Another 9% or so got no clear call; they are omitted. The list shows a part of the results.

// solved cases for Potency follow
O=C(NCCCN1CCOCC1)c1cc(-c2cccs2)on1	16.5 µM (active)
Cc1ccc2oc(-c3ccc(Cl)c(NC(=O)c4cc5ccccc5o4)c3)nc2c1	5.85 µM (active)
COc1ccc(-c2nnc(-c3ccc(F)cc3)o2)cc1	1.04 µM (active)
COc1ccc2nc(SCc3cccc(C)c3)nc(C)c2c1	7.36 µM (active)

Q) I am curious: what Potency value has been reported for COc1ccccc1-c1cc(C(=O)NC2CCCC2)no1 ?
A) 14.7 µM (active)

----------
# methodSummary: qHTS Assay for Modulators of miRNAs and/or Inhibitors of miR-21; note: potency is the fitted concentration of half-maximal effect; nearly all actives have a fitted effect of over 55% in size
# protocolConditions: HeLa miR-21-FLuc reporter, luciferase luminescence, 48 h; actives lower the signal
# From the text: MLSCN Grant: 1 R21 NS059478-01 Assay Provider: Qihong Huang, The Wistar Institute NCGC Assay Overview: MicroRNAs (miRNAs) are endogenously encoded small (~20-25 nucleotides), nonprotein-coding RNAs that are involved in post-transcriptional repression of target messenger RNAs (mRNAs) (Le and Hannon, 2004). […]
The campaign covered roughly 340,000 compounds. About 3,300 (0.97%) were called active. Inconclusive results (about 9%) are left out. This is one part of the list.
Measured Potency, listed per entry for reference.

// solved cases for Potency follow
S=c1[nH]nc(-c2ccc(Cl)cc2Cl)n1-c1ccccc1	5.21 µM (active)
CN1CCN(/N=C/c2ccc(Br)cc2)CC1	14.7 µM (active)
Cc1cccc(OCCCn2c(=O)sc3ccccc32)c1	14.7 µM (active)
COc1ccc(C(=O)C(OC(=O)c2ccccc2Cl)c2ccccc2)cc1 (configuration not stated)	14.7 µM (active)
CCN(CC)c1ccc(NC(=O)C2CC3CCC2C3)cc1 (configuration not stated)	10.4 µM (active)

Q) I am curious: what Potency value has been reported for CC(=O)Nc1ccccc1C(=O)C(=O)Nc1ccc(C)c(F)c1 ?
A) 2.33 µM (active)

Q) I am curious: what Potency value has been reported for Cc1cccc(OCCn2c(=O)sc3ccccc32)c1 ?
A) 5.21 µM (active)

Q) I am curious: what Potency value has been reported for NNCCc1ccccc1 ?
A) 14.7 µM (active)

Q) I am curious: what Potency value has been reported for O=C(N/N=C/c1ccc(Br)cc1)c1ccc(Br)o1 ?
A) 3.29 µM (active)

Q) I am curious: what Potency value has been reported for S=C(NCCc1ccccc1)NCCc1ccccc1 ?
A) 2.61 µM (active)

Q) I am curious: what Potency value has been reported for c1csc(-c2nc(N3CCCCC3)no2)c1 ?
A) 2.93 µM (active)

Q) I am curious: what Potency value has been reported for COc1ccc(OCCn2c(=O)sc3ccccc32)cc1 ?
A) 14.7 µM (active)

Q) I am curious: what Potency value has been reported for COc1ccc(-c2nc(C#N)c(NC(C)C)o2)cc1 ?
A) 6.56 µM (active)
